biological target: T1, wild type human CD47 (Acro Biosystems, cat. no. CD7-H5227) (human, UniProt Q08722 19-139); experiment: SPR, IgG captured, CD47 in flow; exp 2;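 further: rates derived from association and dissociation curves, KD estimated from them, C33G mutein used to avoid CD47 IgV homodimers for true monovalent affinity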
T1 construct: Bought protein used as SPR analyte; also called Human CD47 wt; wild-type CD47
T1 sequence (Q08722 19-139 limits assumed): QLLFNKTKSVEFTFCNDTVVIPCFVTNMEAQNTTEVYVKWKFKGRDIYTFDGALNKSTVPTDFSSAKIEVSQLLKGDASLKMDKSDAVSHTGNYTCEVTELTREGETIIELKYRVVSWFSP
Recorded measurements of koff, one per entry
Please state the figure in s⁻¹; there is no need to write the unit.

binder	reported metric	reported
108VH10.Mc / 108VL10.M1 (antibody, V domains shown, 4D5-framework series; constant regions not restated for this series; also called VH10.Mc VL10.M1) VH: EVQLVESGGGLVQPGGSLRLSCAASGYSFTHHWISWVRQAPGKGLEWVAMIDPSDSETRLSQKFKDRFTISADTSKNTAYLQMNSLRAEDTAVYYCSRLGRYYFDYWGQGTLVTVSS VL: DIQMTQSPSSLSASVGDRVTITCRASENVGTYISWYQQKPGKAPKLLIYGASNRYTGVPSRFSGSRSGTDFTLTISSLQPEDFATYYCGESYGHLYTFGQGTKVEIK	koff	0.0054

Here is the next item to consider.
-- ask Value lookup for koff; key = chimeric antibody 108C10A6 (antibody, V domains shown, Chimeric antibody with mouse variable domains; captured through human Fc; also called VH / VL) VH: QMQLQQSGPQLVRPGASVKISCKTSGYSFTHHWIHWMKQRPGQGLEWIGMIDPSDSETRLSQKFKDKATLTVDASSSTAYMQLNSPTSEDSALYFCARLGRYYFDYWGQGTTLTVSS VL: NIVMTQSPRSMSMSVGERVTLSCKASENVGTYISWYQQKPDQSPKLLIYGASNRYTGVPDRFTGSGSGTDFTLTISTVQAEDLADYHCGESYGHLYTFGGGTKLEIK
-- reply 0.00034
